molecular target: delta opioid receptor (NG108-15 cell membranes) (Mus musculus, UniProt P32300); construct: NG108-15 cell membranes were purchased from Applied Cell Sciences (Rockville, Md.); host or cells: NG108-15 cells (membranes purchased); experiment: Delta Opioid Receptor Functional Assay: [35S]GTPγS Binding in NG108-15 Cell Membranes, Version 2; type: biochemical; settings: NG108-15 cell membranes, [35S]GTPγS, version 2; read-out: DOR GTP-binding Assay_v2_ EC50
A collection of molecules and their measured EC50

Example results:
test_smiles: Cc1cc(O)cc(C)c1C[C@H](N)C(=O)N(Cc1cccc(C(=O)O)c1)[C@@H](C)c1nc(-c2ccccc2)c[nH]1
result: > 10 µM
--
test_smiles: Cc1cc(C(N)=O)cc(C)c1C[C@H](N)C(=O)N(Cc1ccc(C(=O)O)o1)[C@@H](C)c1nc(-c2ccccc2)c[nH]1
result: > 10 µM

// COc1ccc(CN(C(=O)[C@@H](N)Cc2c(C)cc(C(N)=O)cc2C)[C@@H](C)c2nc(-c3cccc(C(=O)O)c3)c[nH]2)cc1OC : EC50 value = > 10 µM

====

biological target: mu opioid receptor (Rattus norvegicus, UniProt P33535); construct: from tissue; host or cells: forebrain of male Wistar rats; assay: Rat Brain Mu Opioid Receptor Binding Assay (and Version 2a, [3H]DAMGO); settings: rat forebrain membranes, margin of error 10-20%, read-out: r Ki μ
Sequence (P33535 whole entry): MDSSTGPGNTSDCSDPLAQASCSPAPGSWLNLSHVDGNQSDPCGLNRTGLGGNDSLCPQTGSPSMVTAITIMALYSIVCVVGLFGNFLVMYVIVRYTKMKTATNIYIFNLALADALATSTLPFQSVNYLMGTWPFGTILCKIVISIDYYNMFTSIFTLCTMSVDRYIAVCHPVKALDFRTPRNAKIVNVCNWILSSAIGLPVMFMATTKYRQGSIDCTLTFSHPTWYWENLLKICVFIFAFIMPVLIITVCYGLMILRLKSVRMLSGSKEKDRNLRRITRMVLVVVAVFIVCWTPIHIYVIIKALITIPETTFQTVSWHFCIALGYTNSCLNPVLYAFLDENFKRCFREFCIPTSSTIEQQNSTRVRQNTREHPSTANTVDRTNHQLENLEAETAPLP
Catalogue of Ki readings, one per entry.

Example compounds with recorded Ki:
compound: Cc1cc(O)cc(C)c1C[C@H](N)C(=O)N(Cc1nc(-c2ccccc2)c[nH]1)CC1CC1 [Cpd 192]
Ki: 0.09 nM

compound: COc1ccc(CN(C(=O)[C@@H](N)Cc2c(C)cc(C(N)=O)cc2C)[C@@H](C)c2nc(-c3ccc(Cl)cc3)c(C)[nH]2)cc1C(=O)O [Cpd 239]
Ki: 0.44 nM

compound: Cc1cc(O)cc(C)c1C[C@H](N)C(=O)N(Cc1nc(-c2ccccc2)c[nH]1)C(C)C [Cpd 194]
Ki: 0.06 nM

compound: CC(C)N(C(=O)[C@@H](N)Cc1ccc(O)cc1)[C@H](C)c1nc(-c2ccccc2)c[nH]1 [Cpd 222]
Ki: 91.2 nM

compound: Cc1cc(O)cc(C)c1C[C@H](N)C(=O)N(C)[C@H](C)c1nc(-c2ccccc2)c[nH]1 [Cpd 206]
Ki: 0.2 nM

compound: CN(Cc1nc(-c2ccccc2)c[nH]1)C(=O)[C@@H](N)Cc1ccc(O)cc1 [Cpd 198]
Ki: 152 nM

compound: CC(C)N(C(=O)[C@@H](N)Cc1ccc(O)cc1)[C@@H](C)c1nc(-c2ccccc2)c[nH]1 [Cpd 225]
Ki: 0.73 nM

compound: Cc1cc(O)cc(C)c1C[C@H](N)C(=O)N[C@@H](Cc1ccccc1)c1nc(-c2ccccc2)c[nH]1 [Cpd 177]
Ki: 13.4 nM

compound: Cc1cc(O)cc(C)c1C[C@H](N)C(=O)N(Cc1ccc(C(F)(F)F)cc1)[C@@H](C)c1nc(-c2ccccc2)c[nH]1 [Cpd 249]
Ki: 0.12 nM

compound: CC(C)[C@H](NC(=O)[C@@H](N)Cc1cccc(C(N)=O)c1)c1nc(-c2ccccc2)c[nH]1 [Cpd 185]
Ki: 6720 nM

C[C@@H](c1nc(-c2ccccc2)c[nH]1)N(C)C(=O)[C@@H](N)Cc1ccc(S(N)(=O)=O)cc1 [Cpd 189] on mu opioid receptor (Rattus norvegicus, UniProt P33535) gives Ki = 277 nM

mu opioid receptor (Rattus norvegicus, UniProt P33535) assay, compound Cc1cc(O)cc(C)c1C[C@H](N)C(=O)N[C@@H](CC(C)C)c1nc(-c2ccccc2)c[nH]1 [Cpd 176] , recorded Ki = 156 nM

Entry C[C@@H](c1nc(-c2ccccc2)c[nH]1)N(Cc1ccc(C(=O)O)o1)C(=O)[C@@H](N)Cc1ccc(C(N)=O)cc1 [Cpd 304] : Ki on mu opioid receptor (Rattus norvegicus, UniProt P33535) = 161 nM

Reading of Ki for C[C@H](c1nc(-c2ccccc2)c[nH]1)N(C)C(=O)[C@@H](N)Cc1ccc(O)cc1 [Cpd 210] with mu opioid receptor (Rattus norvegicus, UniProt P33535): 420 nM

// Ki (mu opioid receptor (Rattus norvegicus, UniProt P33535)) for COc1ccc(CN(C(=O)[C@@H](N)Cc2c(C)cc(O)cc2C)[C@@H](C)c2nc(-c3ccccc3)c[nH]2)cc1C(=O)Nc1cccc(C(=O)O)c1 [Cpd 306] = 0.9 nM

The recorded Ki with mu opioid receptor (Rattus norvegicus, UniProt P33535) for C[C@@H](c1nc(-c2ccccc2)c[nH]1)N(Cc1cccc(-c2nnn[nH]2)c1)C(=O)[C@@H](N)Cc1ccc(C(N)=O)cc1 [Cpd 267] was 1.53 nM

GET /values?item= Cc1cc(C(N)=O)cc(C)c1C[C@H](N)C(=O)N(Cc1cccc(C(=O)O)c1)[C@@H](C)c1nc(-c2ccccc2)c[nH]1 [Cpd 227] &system= mu opioid receptor (Rattus norvegicus, UniProt P33535) returns Ki: 0.96 nM

====

target: mu opioid receptor (CHO-hMOR cell membranes) (Homo sapiens, UniProt P35372); construct: purchased Receptor Biology, Inc. (Baltimore, Md.); host or cells: CHO cells (recombinant expression); test: Mu Opioid Receptor Functional Assay: [35S]GTPγS Binding in CHO-hMOR Cell Membranes, Versions 1 and 2; format: biochemical; details: version 1, basal binding = 100%
Sequence (P35372 whole entry): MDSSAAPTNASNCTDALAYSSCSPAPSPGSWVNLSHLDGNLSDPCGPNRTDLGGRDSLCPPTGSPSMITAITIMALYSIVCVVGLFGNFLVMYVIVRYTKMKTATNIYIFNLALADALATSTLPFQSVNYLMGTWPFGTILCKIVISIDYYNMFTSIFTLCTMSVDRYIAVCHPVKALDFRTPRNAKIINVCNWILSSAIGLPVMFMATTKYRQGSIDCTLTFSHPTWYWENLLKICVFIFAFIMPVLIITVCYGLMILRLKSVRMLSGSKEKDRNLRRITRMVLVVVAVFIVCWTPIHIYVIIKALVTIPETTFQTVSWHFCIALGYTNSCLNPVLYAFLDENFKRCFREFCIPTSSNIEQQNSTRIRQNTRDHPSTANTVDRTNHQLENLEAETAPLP
metric_name: MOR GTP assay_v1 % of Basal

Known results for compounds:
test_smiles: Cc1cc(O)cc(C)c1C[C@H](N)C(=O)N(C)[C@@H](CC(C)C)c1nc(-c2ccccc2)c[nH]1
result: 864.00%
--
test_smiles: CNC(=O)c1cc(C)c(C[C@H](N)C(=O)N(C)[C@H](C)c2nc(-c3ccccc3)c[nH]2)c(C)c1
result: 862.00%
--
test_smiles: CCN(C(=O)[C@@H](N)Cc1ccc(O)cc1)[C@H](C)c1nc(-c2ccccc2)c[nH]1
result: 295.00%
--
test_smiles: Cc1cc(O)cc(C)c1C[C@H](N)C(=O)N(Cc1nc(-c2ccc(C(F)(F)F)cc2)c(C)[nH]1)C(C)C
result: 753.53%
--
test_smiles: Cc1cc(O)cc(C)c1C[C@H](N)C(=O)N(Cc1ccccc1)[C@@H](C)c1nc(-c2ccccc2)c[nH]1
result: 599.00%

Let me check: C[C@@H](c1nc(-c2ccccc2)c[nH]1)N(C)C(=O)[C@@H](N)Cc1ccc(O)cc1 , system mu opioid receptor (CHO-hMOR cell membranes) (Homo sapiens, UniProt P35372), measured MOR GTP assay_v1 % of Basal is 371.00%

Case Cc1cc(O)cc(C)c1C[C@H](N)C(=O)N[C@@H](Cc1ccccc1)c1nc(-c2ccccc2)c[nH]1 , mu opioid receptor (CHO-hMOR cell membranes) (Homo sapiens, UniProt P35372), MOR GTP assay_v1 % of Basal recorded as 625.00%

====

Measured Ki values are reported for all entries that follow.
molecular target: human mu opioid receptor (Homo sapiens, UniProt P35372); construct: purchased Perkin Elmer RBHOMM400UA; host or cells: Chinese Hamster Ovary cells (recombinant expression); assay: Human Mu Opioid Receptor Binding Assay (CHO membranes, 3H-Damgo); conditions: read-out: hKi μ
Sequence (P35372 whole entry): as above
# output: bare number, implied unit nM

Solved cases (2 shown):
test_smiles: C[C@@H](c1nc(-c2ccccc2)c[nH]1)N(Cc1cccc(-c2nnn[nH]2)c1)C(=O)[C@@H](N)Cc1ccc(C(N)=O)cc1
metric_name: Ki
result: 6.88

test_smiles: Cc1cc(C(N)=O)cc(C)c1C[C@H](N)C(=O)N(Cc1ccccc1C(=O)O)[C@@H](C)c1nc(-c2ccccc2)c[nH]1
metric_name: Ki
result: 7.91

Switching to the query record.
compound COc1ccc(CN(C(=O)[C@@H](N)Cc2c(C)cc(C(N)=O)cc2C)[C@@H](C)c2nc(-c3ccccc3Br)c[nH]2)cc1OC , Ki observed: 17

====

Reported pKi values for the following compounds.
biological target: human delta subtype 2 opioid receptor (Homo sapiens, UniProt P41143); test: Human Delta Opioid Receptor Binding Assay (CHO membranes, 3H-Naltrindole); conditions: read-out: hKi δ
Sequence (P41143 whole entry): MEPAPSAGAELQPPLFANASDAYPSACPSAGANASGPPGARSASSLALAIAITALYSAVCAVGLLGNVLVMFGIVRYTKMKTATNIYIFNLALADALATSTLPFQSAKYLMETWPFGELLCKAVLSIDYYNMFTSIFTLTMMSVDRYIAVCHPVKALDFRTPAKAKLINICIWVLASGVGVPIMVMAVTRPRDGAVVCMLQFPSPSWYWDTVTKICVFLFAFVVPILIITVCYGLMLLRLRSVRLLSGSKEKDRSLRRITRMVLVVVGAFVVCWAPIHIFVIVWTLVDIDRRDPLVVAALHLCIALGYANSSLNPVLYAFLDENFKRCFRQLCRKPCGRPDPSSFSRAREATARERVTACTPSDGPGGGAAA
Kindly note that pKi refers to -log10 of the concentration in mol/L and answer with the value alone.

Sample records with pKi:
test_smiles: Cc1ccccc1-c1nc(CN(C(=O)[C@@H](N)Cc2c(C)cc(O)cc2C)C(C)C)[nH]c1C
pKi: 6.49

test_smiles: Cc1cc(C(N)=O)cc(C)c1C[C@H](N)C(=O)N(C1CCCCC1)[C@@H](C)c1nc(-c2ccccc2)c[nH]1
pKi: 6.15

test_smiles: Cc1cc(O)cc(C)c1C[C@H](N)C(=O)N(Cc1ccco1)[C@@H](C)c1nc(-c2ccccc2)c[nH]1
pKi: 6.76

Field: next compound
Per the record, Cc1cc(O)cc(C)c1C[C@H](N)C(=O)N(Cc1nc(-c2ccc(-c3ccccc3)cc2)c(C)[nH]1)C(C)C has pKi of 6.49
